The measured values listed here are drawn from ChEMBL document CHEMBL3988442.

Molecular target: Histidine--tRNA ligase (Trypanosoma cruzi (strain CL Brener)) (UniProt Q4DA54)
Sequence (Q4DA54 as listed by the source): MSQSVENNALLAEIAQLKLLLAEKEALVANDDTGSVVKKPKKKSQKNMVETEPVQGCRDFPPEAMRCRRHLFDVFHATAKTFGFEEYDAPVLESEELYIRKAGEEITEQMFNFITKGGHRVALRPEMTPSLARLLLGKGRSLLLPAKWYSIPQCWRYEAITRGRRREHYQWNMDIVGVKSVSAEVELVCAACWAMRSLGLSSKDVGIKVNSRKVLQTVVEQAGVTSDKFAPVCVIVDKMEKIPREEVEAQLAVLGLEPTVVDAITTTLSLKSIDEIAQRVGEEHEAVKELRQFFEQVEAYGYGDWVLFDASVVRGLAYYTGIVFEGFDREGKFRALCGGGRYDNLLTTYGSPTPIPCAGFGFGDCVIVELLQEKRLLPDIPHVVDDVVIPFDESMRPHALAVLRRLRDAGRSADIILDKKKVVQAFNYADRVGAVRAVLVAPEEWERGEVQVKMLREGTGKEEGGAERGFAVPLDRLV
Experiment: Trypanosoma cruzi histidyl tRNA synthetase (Tc-HisRS)
Type: functional
Parameters: scale not given: direction of the effect not stated beside the values
Details: 30 µM
Among all 69,000 compounds or so, about 30 (0.04%) showed an effect of 50% or more. Many of the other results were omitted from the sample, so strong results are more common in it than they were.
PROPERTY_MEASURED: Percent Effect
Returns: string containing the numeric result and its unit.

# annotated cases, reported Percent Effect shown
O=C(O)c1cncc(Cc2ccc(F)cc2)c1 :: 62.8%
Cn1nc(Cn2ccnc2)c2c1CN(c1ncccn1)C2 :: 2.15%

Reported Percent Effect for `O=C(O)c1cncc(Cc2cccc(F)c2)c1` : what is it?
5.64%
